From: PubChem BioAssay (NCI)

I'd be grateful if you could share measured TGI for these entries.
# Tested on: SK-MEL-5 melanoma
# Assay notes: NCI tumour cell line growth inhibition, 48 h
Numbers only, in µM.

Please review the following examples before continuing.
COC(=O)C1(Cc2ccccc2)Cc2cc3c(cc2C1=O)CCC3 (stereo not given) = 33
COC(=O)C1OC(O[C@H]2CCC3(C)C(CCC4(C)C3CC=C3C5CC(C)(C)CCC5(C(=O)O)CC[C@]34C)C2(C)C)C(O)C(OC2OC(CO)C(O)C(O)C2O)C1O (stereo not given in full) = 11.4
O=C(/C=C/c1ccc(Cl)cc1)c1ccc(Cl)cc1Cl = 13.1

State its TGI: Cc1nn(-c2ccc(F)cc2)c2ncnc(Nc3ccc(NC(=O)Nc4ccc(Cl)c(C(F)(F)F)c4)cc3)c12
12.1

* * *

# System: OVCAR-5 ovarian
# Assay notes: NCI tumour cell line growth inhibition, 48 h
Hi there, I'd appreciate the recorded TGI for every entry that follows.

# annotated cases, reported TGI shown
CCOC(=O)c1c(NC(=O)c2ccccc2)sc2c1CCCC2 = > 100 µM
Cc1c(/C=N\NC(=S)N2CCN(C(=S)N/N=C\c3c(C)n(C)n(-c4ccccc4)c3=O)CC2)c(=O)n(-c2ccccc2)n1C = > 100 µM
C[C@@H]1CC[C@H]2C(COCC3=C(C(F)(F)F)O[C@@H]4O[C@@]5(C)CC[C@H]6[C@H](C)CC[C@@H]3[C@@]46OO5)=C(C(F)(F)F)O[C@@H]3O[C@@]4(C)CC[C@@H]1[C@]32OO4 = > 100 µM

Hi team, please reply with TGI for each item in this list.
1. CCCCCCCCCC[C@@H](O)[C@H]1CC[C@H]([C@H]2CC[C@H]([C@H](O)CCCCCCCCCC[C@@H]3CC(CC(C)=O)C(=O)O3)O2)O1 (stereo partly drawn)
2. O=C1CC(c2ccco2)C2(C(=O)NC(=O)NC2=O)C(c2ccco2)C1 (stereo not drawn)

> 50 µM
> 75 µM

Your task in this section: give TGI for each listed record.
1. COc1ccc(N2C(=O)C3c4[nH]c5ccc([N+](=O)[O-])cc5c4C4CCC(C(C)(C)C)CC4C3C2=O)cc1 (stereo not drawn)
2. Cc1c(S(=O)(=O)c2ccccc2)c(N)n(Cc2ccccc2)c1C
3. [N-]=[N+]=Nc1c(Cl)c(=O)n(-c2ccccc2)c2ccccc12

1: > 100 µM; 2: > 100 µM; 3: 42.4 µM

Give TGI for each listed item.
1. O=C(Nc1ccc(I)cc1C(=O)NCCO)c1cccs1
2. CCCCCCCCCCCCCC(=S)NCCCC[C@H](NC(=O)OCc1ccccc1)C(=O)Nc1ccccc1
3. c1cc(-c2cnc(-c3ccc4c(c3)CCCO4)o2)ccn1
4. O=C(/C=C/c1ccccc1)/C=C/c1ccccc1O
5. Nc1n[nH]c2ccc([C@@H]3Nc4ccc5[nH]ncc5c4[C@H]4[C@H]5CCC(C5)[C@H]43)cc12
6. CC(C)(C)OC(=O)NC(C)(C)C(=O)NCCC(=O)O
7. CC(=O)C(CN1CCCCC1)C(c1ccccc1)c1c(O)c2ccccc2oc1=O (stereo not drawn)

1. > 100 µM
2. > 100 µM
3. 44.5 µM
4. 65.3 µM
5. 49.6 µM
6. > 100 µM
7. > 100 µM

Field: TGI. Fill in for each record below.
1. O=c1[nH]c2nc3ccccc3c(=O)n2/c1=C/c1ccc(O)cc1
2. CCn1cc(C(c2ccc(Cl)cc2)n2ccnc2)c2cc(Br)ccc21 (stereo not drawn)
3. COc1cc(COC(=O)N[C@H](C(=O)O)C(C)(C)C)c([N+](=O)[O-])cc1OC

["> 100 µM", "25.5 µM", "> 100 µM"]

* * *

For each of the molecules below, state its TGI.
# System: XF 498 CNS
# Assay notes: NCI tumour cell line growth inhibition, 48 h

Worked examples follow.
CC(C)C(Sc1nc(-c2ccccc2)c(-c2ccccc2)[nH]1)C(=O)NNC(=S)Nc1ccccc1 (configuration not stated) = 32.7 µM
Nc1n[nH]c(=O)[nH]1 = > 100 µM
COC(=O)C(c1[nH]nc2ccccc12)C(C(=O)OC)c1[nH]nc2ccccc12 (configuration not stated) = > 100 µM
FC(F)(F)c1nc(-c2ccccc2Cl)[nH]c1C(F)(F)F = 1.54 µM
O=C1NC2(CCCC2)C(=O)C12CCCC2 = > 100 µM

State the recorded TGI for every item in the following list.
1. C#CCNC(=O)NC(CCCNC(=O)OCc1ccccc1)C(=O)OCc1ccccc1 (configuration not stated)
2. COC1(C)CC2N(C(=O)c3ccccc3)N=C(c3ccccc3)CC2(C)O1 (configuration not stated)
3. COc1ccc2cc1Oc1ccc(cc1)C[C@H]1c3cc(c(OC)cc3CCN1C)Oc1c(OC)c(OC)cc3c1[C@H](C2)N(C)CC3
4. COC1O[C@H]2CCN(C(=O)OCc3ccccc3)[C@H]2[C@H]1OCc1ccccc1 (some centres not stated)
5. O=C1NC(c2ccc(O)cc2)C2CCC1C2 (configuration not stated)

26.9 µM
> 100 µM
18.1 µM
> 100 µM
> 100 µM

Look up TGI for the entries below, preserving their order.
1. N#CC1(c2nc3ccccc3o2)C(=O)C(=O)N(C2C3CC4CC(C3)CC2C4)C(=O)C1=O (configuration not stated)
2. COC(=O)c1cc(CC(C)C)c2c(c1)[nH]c1ccccc12

> 100 µM
> 100 µM

* * *

# Tested on: HS 578T breast
# Assay notes: NCI tumour cell line growth inhibition, 48 h
Can you tell me GI50 for the items I'm about to list?

Examples with answers:
COC(=O)C(=O)CC(=O)CCn1ncc(Cl)c(Cl)c1=O = 27.3 µM
Cc1nn(-c2ccc(F)cc2)c2ncnc(Nc3ccc(NC(=O)Nc4ccc(Cl)c(C(F)(F)F)c4)cc3)c12 = 2.66 µM
CC1(C)N=C(N)N=C(N)N1c1ccc(CCCCc2ccc(S(=O)(=O)F)cc2)cc1 = 13.2 µM
COc1ccc2cc1Oc1ccc(cc1)C[C@H]1c3cc(c(OC)cc3CCN1C)Oc1c(OC)c(OC)cc3c1[C@H](C2)N(C)CC3 = 13.1 µM
COc1cc(C(=O)NC2c3ccccc3-c3ccccc32)c(N)cc1OCc1ccccc1 = 14.5 µM

State recorded GI50 for all listed compounds.
1. CC(=O)c1ccc(Nc2cc(-c3ccccc3)nc3c(O)cccc23)cc1
2. O=C(CCN1CCN(c2cnc3ccccc3n2)CC1)c1csc2ccccc12
3. O=C(NNc1nc2c(F)cccc2n2cccc12)c1cnccn1
4. C=CC(=O)N[C@H]1C=C(C)c2c(-c3cnc4ccccc4c3)c3c(N)ncnc3n2C1
5. O=C(c1ccc2ccccc2c1)c1c(C(F)(F)F)n([O-])c2cc(Cl)c(Cl)cc2[n+]1=O
6. COc1cc2c3c(cccc3c1)C(=O)N(CCN1CCCC1)C2=O
7. CN1CCN(Cc2ccc(C(=O)Nc3cncc(C#Cc4cnc(N)c5ccccc45)c3)cc2C(F)(F)F)CC1
8. O=C(Nc1nc2ccccc2s1)OCC(F)(F)F

1: 27 µM; 2: 43.6 µM; 3: 7.05 µM; 4: 8.14 µM; 5: 1.85 µM; 6: 3.98 µM; 7: 2.98 µM; 8: > 100 µM

Look up GI50 for the entries below, preserving their order.
1. O=C(/C=C/c1ccc(Cl)cc1)c1ccc(Cl)cc1Cl
2. CC(C)(C)c1cc(O)c(O)c(C(C)(C)C)c1
3. C=C1C(O)C2CCC(C)(C)C(=O)C2=C(CC(C)C)C12CC2 (stereo unspecified)
4. COc1cc2ncn(-c3cc(OCc4ccccc4Cl)c(C(N)=O)s3)c2cc1OC
5. CC(=O)OCC1OC(O[C@@H]2C[C@H]3C(C)(C)[C@H](OC(C)=O)CC[C@]3(C)[C@H]3CCC4=C([C@@H](C)C[C@@H](O)[C@H](O)C(C)(C)O)CC[C@@]4(C)[C@@]32C)C(O)C(O)C1O (stereo partly specified)

1. 11.7 µM
2. 3.9 µM
3. 18.9 µM
4. 0.609 µM
5. 15.2 µM

Working through the 3 compounds below one at a time, give GI50 for each.
1. Cc1cc2nc3c4cc(Cl)ccc4n(CCN(C)C)c3nc2cc1C
2. Oc1ccccc1/C=N/Nc1ccc2ccccc2n1
3. C=C1CCC2C(/C=C(\C)CCC1O)OC(=O)C2C (stereo unspecified)

["2.35 µM", "6.87 µM", "> 100 µM"]

* * *

# System: SK-MEL-28 melanoma
# Assay notes: NCI tumour cell line growth inhibition, 48 h; in the data active = GI50 below about 0.43 µM; inactive = the rest
The categories you may choose from are YES for active, NO for inactive

O=c1cc(-c2cccc(F)c2)[nH]c2cc3c(cc12)OCO3 = YES

Could you check what this test reported for CC(=O)OCC1OC(O[C@@H]2C[C@H]3C(C)(C)[C@H](OC(C)=O)CC[C@]3(C)[C@H]3CCC4=C([C@@H](C)C[C@@H](O)[C@H](O)C(C)(C)O)CC[C@@]4(C)[C@@]32C)C(O)C(O)C1O (some centres undefined) ?
NO

Each compound tested received a call. Report the one for N#CC(=C1SCS1)[N+](=O)[O-] .
NO

Recorded test call requested for COC(=O)C1OC(O[C@H]2CCC3(C)C(CCC4(C)C3CC=C3C5CC(C)(C)CCC5(C(=O)O)CC[C@]34C)C2(C)C)C(O)C(OC2OC(CO)C(O)C(O)C2O)C1O (some centres undefined)
NO
